All figures here come from ChEMBL document CHEMBL1649064.

- System: Plasmodium falciparum
- assayComment: Antimalarial activity against mefloquine-resistant Plasmodium falciparum CDC Sierra Leone 1 D6 after 48 hrs by [3H]hypoxanthine uptake assay
- Assay type: functional, organism-based
Parameter class (string): assigned from measured IC50. Ranges: group A: < 1 µg/mL; group B: ≥ 1 µg/mL and < 2 µg/mL; group C: ≥ 2 µg/mL

{"molecule": "COc1cc(NC(C)CCCN)c2nc(C(F)(F)F)cc(C)c2c1-c1cccc(C)c1.O=C(O)CCC(=O)O (centres undefined)", "cat": "group A"}
{"molecule": "COc1cccc(-c2c(OC)cc(NC(C)CCCN)c3nc(C(F)(F)F)cc(C)c23)c1.O=C(O)CCC(=O)O (centres undefined)", "cat": "group A"}
{"molecule": "COc1cc(C)c2c(-c3ccc(C(F)(F)F)cc3)c(OC)cc(NC(C)CCCN)c2n1.O=C(O)CCC(=O)O (centres undefined)", "cat": "group C"}
{"molecule": "COc1cc(NC(C)CCCNC(=O)OC(C)(C)C)c2nc(C(F)(F)F)cc(C)c2c1-c1ccc(C(F)(F)F)cc1 (centres undefined)", "cat": "group B"}
{"molecule": "COc1cc(NC(C)CCCN)c2ncccc2c1 (centres undefined)", "cat": "group C"}
{"molecule": "COc1cc(C)c2c(-c3ccccc3)c(OC)cc(NC(C)CCCN)c2n1.O=C(O)CCC(=O)O (centres undefined)", "cat": "group C"}
{"molecule": "COc1cc(C)c2c(Oc3cccc(C(F)(F)F)c3)c(OC)cc(NC(C)CCCN)c2n1 (centres undefined)", "cat": "group C"}
{"molecule": "COc1cc(NC(C)CCCN)c2nc(C(F)(F)F)cc(C)c2c1-c1cccc(C(F)(F)F)c1.O=C(O)CCC(=O)O (centres undefined)", "cat": "group B"}
{"molecule": "COc1cc(NC(C)CCCN)c2nc(C(F)(F)F)cc(C)c2c1-c1ccccc1.O=C(O)CCC(=O)O (centres undefined)", "cat": "group C"}
{"molecule": "COc1cc(C)c2c(-c3ccc(Cl)c(Cl)c3)c(OC)cc(NC(C)CCCN)c2n1.O=C(O)CCC(=O)O (centres undefined)", "cat": "group C"}
{"molecule": "COc1cccc(-c2c(OC)cc(NC(C)CCCNC(=O)OC(C)(C)C)c3nc(C(F)(F)F)cc(C)c23)c1 (centres undefined)", "cat": "group A"}
{"molecule": "COc1cc(NC(C)CCCNC(=O)OC(C)(C)C)c2nc(C(F)(F)F)cc(C)c2c1-c1cccc(C(F)(F)F)c1 (centres undefined)", "cat": "group B"}
{"molecule": "COc1cc(C)c2c(-c3cccc(C)c3)c(OC)cc(NC(C)CCCN)c2n1.O=C(O)CCC(=O)O (centres undefined)", "cat": "group B"}
{"molecule": "COc1cc(NC(C)CCCNC(=O)OC(C)(C)C)c2nc(C(F)(F)F)cc(C)c2c1-c1cccc(C)c1 (centres undefined)", "cat": "group A"}

----------
- assayComment: Half life in mouse microsomes by LC-MS/MS analysis
- Type: ADME, Microsome
// values below are reported half-life
assayReadout: half-life

{"compound": "COc1cc(C)c2c(-c3cccc(C)c3)c(OC)cc(NC(C)CCCN)c2n1.O=C(O)CCC(=O)O (stereo not drawn)", "assayReadout": "half-life", "result": "> 60 min"}
{"compound": "COc1cc(NC(C)CCCN)c2nc(C(F)(F)F)cc(C)c2c1-c1cccc(C)c1.O=C(O)CCC(=O)O (stereo not drawn)", "assayReadout": "half-life", "result": "> 60 min"}
{"compound": "COc1cc(NC(C)CCCN)c2nc(C(F)(F)F)cc(C)c2c1-c1ccc(C(F)(F)F)cc1.O=C(O)CCC(=O)O (stereo not drawn)", "assayReadout": "half-life", "result": "> 60 min"}
